biological target: pteridine reductase (TbPTR1) (Trypanosoma brucei, UniProt O76290); test: crystal structure at […] Å; assay type: biochemical
QUANTITY NAME: Ki

q: Give Ki for `Nc1nc2[nH]cc(CCc3ccc(C(=O)N[C@@H](CCC(=O)O)C(=O)O)cc3)c2c(=O)[nH]1` tested on pteridine reductase (TbPTR1) (Trypanosoma brucei, UniProt O76290).
a: ~30 nM

====

molecular target: pteridine reductase (TbPTR1) (Trypanosoma brucei, UniProt O76290); assay: crystal structure at […] Å; type: biochemical
QUANTITY NAME: Ki

q: Give the value of Ki reported for the following: COc1cc(NCc2ccc3nc(N)nc(N)c3c2C)cc(OC)c1OC [Trimetrexate]
a: ~70 nM

====

target: UniProt:O76290; experiment: crystal structure at […] Å; type: biochemical
QUANTITY NAME: Ki

q: Let me know recorded Ki for `COc1ccc(OC)c(CCc2csc3nc(N)nc(N)c23)c1` , thanks.
a: ~70 nM
